test-settings: 303.15 K; 94.9 kPa; Liquid; Vibrating tube method
outcome-measure: mass density (kg/m3)
Use kg/m3 as the unit, but write only the number.

- compound: "Cc1ccccc1"
  outcome-measure: "mass density"
  data-value: 857.39
- compound: "CCCCCCCCO"
  outcome-measure: "mass density"
  data-value: 818.08
- compound: "C1COCCN1 [tetrahydro-1,4-oxazine]"
  outcome-measure: "mass density"
  data-value: 989.89

Consider now this further compound.
Exercise: Endpoint output: mass density of `CCCCCCCCCCO` . Value?
Solution: 823.54

---

test-settings: 313.15 K; 94.9 kPa; Liquid; Vibrating tube method
outcome-measure: mass density (kg/m3)
Answer in kg/m3, number only, no unit symbol.

- compound: "CCCCCCCCO [octan-1-ol]"
  data-value: 811.09
- compound: "Cc1ccccc1 [toluene]"
  data-value: 847.82
- compound: "C1COCCN1 [tetrahydro-1,4-oxazine]"
  data-value: 979.82

Now consider the entry below.
Exercise: // mass density lookup, key: CCCCCCCCCCO [decan-1-ol]
Solution: 816.13

---

# reported refractive index; entries follow
test-protocol: refractive index (Na D-line) (dimensionless)
test-settings: 333.15 K; 94.9 kPa; Liquid; (Schmidt +Haensch) refractometer (Model DSR lambda)
// return just the number, without any unit appended

Here's what some known entries look like.
- molecule: "CCCCCCCCO"
  refractive index: 1.41407
- molecule: "Cc1ccccc1"
  refractive index: 1.47401
- molecule: "C1COCCN1 [tetrahydro-1,4-oxazine]"
  refractive index: 1.43562

Exercise: Need refractive index of `CCCCCCCCCCO` , thanks.
Solution: 1.42189

---

test-protocol: refractive index (Na D-line) (dimensionless)
test-settings: 313.15 K; 94.9 kPa; Liquid; (Schmidt +Haensch) refractometer (Model DSR lambda)
outcome-measure: refractive index
Reply briefly: the number, and no unit.

- molecule: "C1COCCN1 [tetrahydro-1,4-oxazine]"
  refractive index: 1.44574

Exercise: Item `Cc1ccccc1` has what recorded refractive index?
Solution: 1.48536

Exercise: So what does the record say about refractive index for `CCCCCCCCO` ?
Solution: 1.42169

Exercise: Need refractive index, item `CCCCCCCCCCO`
Solution: 1.42949

---

test-protocol: refractive index (Na D-line) (dimensionless)
test-settings: 323.15 K; 94.9 kPa; Liquid; (Schmidt +Haensch) refractometer (Model DSR lambda)
In this section we review reported refractive index values for a set of compounds.
// keep it numeric: no unit symbol after the value

Some compounds with recorded refractive index:
- compound: "Cc1ccccc1 [toluene]"
  refractive index: 1.47968
- compound: "CCCCCCCCO [octan-1-ol]"
  refractive index: 1.41783
- compound: "C1COCCN1 [tetrahydro-1,4-oxazine]"
  refractive index: 1.44113

Pending compound:
Exercise: I would be grateful if you could share the reported refractive index for CCCCCCCCCCO [decan-1-ol] .
Solution: 1.42564

---

Measured refractive index of individual entries
test-protocol: refractive index (Na D-line) (dimensionless)
test-settings: 303.15 K; 94.9 kPa; Liquid; (Schmidt +Haensch) refractometer (Model DSR lambda)
Numbers after ± are expanded uncertainties.

# annotated cases, reported refractive index shown
- compound: "CCCCCCCCO [octan-1-ol]"
  refractive index: "1.42561 ± 0.0024"
- compound: "CCCCCCCCCCO [decan-1-ol]"
  refractive index: "1.43332 ± 0.0024"
- compound: "C1COCCN1 [tetrahydro-1,4-oxazine]"
  refractive index: "1.45031 ± 0.0024"

Exercise: What measured refractive index goes with Cc1ccccc1 [toluene] ?
Solution: 1.49193 ± 0.0024
